# Experimental protocol: Solubility in simulated intestinal fluids (FaSSIF/FeSSIF)
# Measurement setup: fed state simulated intestinal fluid (FeSSIF), 25 °C, fessif, thermodynamic from solid
Property: solubility; scope: individual compounds
Answer with a number only, understood to be in µg/mL.

CC(C)(C#Cc1ccc(-c2ccc(Cl)c3c(N(C(=O)N[C@@H](CO)C(=O)O)S(C)(=O)=O)nn(CC(F)(F)F)c23)c([C@H](Cc2cc(F)cc(F)c2)NC(=O)Cn2nc(C(F)(F)F)c3c2C(F)(F)[C@@H]2C[C@H]32)n1)S(C)(=O)=O: 120

We now examine a further compound.
# query: solubility of entry CC(C)(C#Cc1ccc(-c2ccc(Cl)c3c(N(C(=O)OC(CC(=O)O)CC(=O)O)S(C)(=O)=O)nn(CC(F)(F)F)c23)c([C@H](Cc2cc(F)cc(F)c2)NC(=O)Cn2nc(C(F)(F)F)c3c2C(F)(F)[C@@H]2C[C@H]32)n1)S(C)(=O)=O
42
